# System: MRC-5 (lung fibroblast) cells
# protocol details: Cell Titer Glo cell viability assay, MRC-5 non-cancerous control
# Type: cell-based
# condition label: Homo sapiens, MRC5, MRC-5 non-cancerous fibroblasts, 48 h, 25-300 µM, triplicate, means
pIC50: −log10 of the molar value.
So basically: pIC50 at 4 or higher? That is 1. Lower than 4? That is -1.

See these solved cases before continuing.
molecule	assigned label
N#Cc1ccc(Oc2ccccc2-c2nnc(-c3ccccc3)o2)cc1 [2f]	-1
N#Cc1ccc(Oc2ccccc2-c2nnc(-c3ccc(Cl)cc3)o2)cc1 [2g]	1
Cc1nnsc1C(=O)N/N=C/c1ccccc1Oc1ccc(C#N)cc1 [1j]	1
O=C(N/N=C/c1ccccc1Oc1ccc(Cl)cc1)c1cccnc1 [1m]	1

Proceed to the following item.
// query Quick check, pIC50 >= 4? O=C(N/N=C/c1ccccc1Oc1ccccc1)c1ccc(Cl)cc1 [1b]
// result 1

* * *

# System: MRC-5 (lung fibroblast) cells
# protocol details: Cell Titer Glo cell viability assay, MRC-5 non-cancerous control
# Type: cell-based
# condition label: Homo sapiens, MRC5, MRC-5 non-cancerous fibroblasts, 48 h, 25-300 µM, triplicate, means
attribute measured: log10(IC50) (log10 of the value in µM)
Values reflect log10 of reported IC50 (µM).

compound	attribute measured	observed
O=C(N/N=C/c1ccccc1Oc1ccc(Cl)cc1)c1ccccc1 [1k]	log10(IC50)	1.83
Clc1ccc(Oc2ccccc2-c2nnc(-c3ccco3)o2)cc1 [2n]	log10(IC50)	1.55
c1ccc(Oc2ccccc2-c2nnc(-c3cccnc3)o2)cc1 [2c]	log10(IC50)	1.11
N#Cc1ccc(Oc2ccccc2-c2nnc(-c3cccnc3)o2)cc1 [2h]	log10(IC50)	1.36
Clc1ccc(Oc2ccccc2-c2nnc(-c3cccnc3)o2)cc1 [2m]	log10(IC50)	2.09
Clc1ccc(Oc2ccccc2-c2nnc(-c3ccc(Cl)cc3)o2)cc1 [2l]	log10(IC50)	1.72

// query Sample c1ccc(Oc2ccccc2-c2nnc(-c3ccco3)o2)cc1 [2d] — what was its log10(IC50)?
// result 1.60

// query Quick one: N#Cc1ccc(Oc2ccccc2/C=N/NC(=O)c2ccco2)cc1 [1i]
// result 1.50

// query Quick one: O=C(N/N=C/c1ccccc1Oc1ccccc1)c1ccccc1 [1a]
// result 1.23

// query Quick one: Clc1ccc(-c2nnc(-c3ccccc3Oc3ccccc3)o2)cc1 [2b]
// result 1.56

// query Quick one: Cc1nnsc1C(=O)N/N=C/c1ccccc1Oc1ccc(Cl)cc1 [1o]
// result 0.89

* * *

# Test system: PC-3 (prostate adenocarcinoma) cells
# protocol details: Cell Titer Glo cell viability assay, PC-3
# Assay type: cell-based, human
# condition label: PC-3, 48 h, 25-300 µM, triplicate, means
attribute measured: IC50 (µM)
Provide only the numeric value, understood in µM.

// query Sample "O=C(N/N=C/c1ccccc1Oc1ccccc1)c1ccco1" — what was its IC50?
// result 9.39

* * *

# System: MDA-MB-231 (breast adenocarcinoma) cells
# protocol details: Cell Titer Glo cell viability assay, MDA-MB-231
# Type: cell-based, human
# condition label: MDA-MB-231, 48 h, 25-300 µM, triplicate, means
attribute measured: pIC50
# log scale: pIC50 equals minus log10 of the concentration in mol/L

// query Sample O=C(N/N=C/c1ccccc1Oc1ccccc1)c1ccco1 [1d] — what was its pIC50?
// result 4.50

* * *

# System: MRC-5 (lung fibroblast) cells
# protocol details: Cell Titer Glo cell viability assay, MRC-5 non-cancerous control
# Format: cell-based
# condition label: Homo sapiens, MRC5, MRC-5 non-cancerous fibroblasts, 48 h, 25-300 µM, triplicate, means
# reported pIC50; entries follow
# log scale: pIC50 equals minus log10 of the concentration in mol/L

molecule	attribute measured	observed
N#Cc1ccc(Oc2ccccc2/C=N/NC(=O)c2ccc(Cl)cc2)cc1 [1g]	pIC50	4.20

// query Report pIC50 for N#Cc1ccc(Oc2ccccc2/C=N/NC(=O)c2ccccc2)cc1 [1f] tested on MRC-5 (lung fibroblast) cells.
// result 4.25

// query Quick one: O=C(N/N=C/c1ccccc1Oc1ccccc1)c1ccco1 [1d]
// result 4.35

// query Quick one: O=C(N/N=C/c1ccccc1Oc1ccc(Cl)cc1)c1ccco1 [1n]
// result 4.30

// query Quick one: N#Cc1ccc(Oc2ccccc2/C=N/NC(=O)c2cccnc2)cc1 [1h]
// result 4.17
